System: HepG2
Assay: Antiproliferative activity against human HepG2 cells after 48 hrs by MTT assay
Assay type: functional, cell-based
Settings: HepG2, 48 h
Cut-off 50 µM on IC50: below means YES, at or above means NO.

- Compound String: "CC(=O)O[C@@H]1[C@@H](OC(C)=O)[C@H](O[C@H]2CC[C@@]3(C)C(=CC[C@]4(O)[C@@H]3C[C@@H](OC(=O)c3ccc(O)cc3)[C@@]3(C)[C@]4(O)CC[C@@]3(O)C(C)=O)C2)OC[C@H]1OC(C)=O"
  Assigned Label: "YES"
- Compound String: "CC(=O)[C@]1(O)CC[C@@]2(O)[C@]1(C)[C@H](OC(=O)/C=C(\\C)C(C)C)C[C@@H]1[C@@]3(C)CC[C@H](O[C@H]4OC[C@H](O)[C@H](O)[C@@H]4O)CC3=CC[C@]12O"
  Assigned Label: "NO"
- Compound String: "CC(=O)[C@]1(O)CC[C@@]2(O)[C@]1(C)[C@H](OC(=O)/C=C(\\C)C(C)C)C[C@@H]1[C@@]3(C)CC[C@H](O[C@@H]4OC[C@H](O)[C@H](O)[C@H]4O)CC3=CC[C@]12O"
  Assigned Label: "NO"
- Compound String: "CC(=O)[C@]1(O)CC[C@@]2(O)[C@]1(C)[C@H](OC(=O)c1ccc(O)cc1)C[C@@H]1[C@@]3(C)CC[C@H](O)CC3=CC[C@]12O"
  Assigned Label: "NO"
- Compound String: "CC(=O)O[C@H]1[C@H](OC(C)=O)[C@@H](O[C@H]2CC[C@@]3(C)C(=CC[C@]4(O)[C@@H]3C[C@@H](OC(=O)/C=C(\\C)C(C)C)[C@@]3(C)[C@]4(O)CC[C@@]3(O)C(C)=O)C2)O[C@@H](C)[C@H]1OC(C)=O"
  Assigned Label: "YES"

Lookup: hey, is IC50 for COc1cc2c(c(OC)c1OC)-c1ccc(OC)c(=O)cc1[C@@H](NC(C)=O)CC2 lower than 50 µM or not?
Found: YES

Lookup: hey, is IC50 for CC(=O)OC[C@H]1O[C@@H](O[C@H]2CC[C@@]3(C)C(=CC[C@]4(O)[C@@H]3C[C@@H](OC(=O)/C=C/c3ccccc3)[C@@]3(C)[C@]4(O)CC[C@@]3(O)[C@H](C)OC(=O)c3cccnc3)C2)[C@H](OC(C)=O)[C@@H](OC(C)=O)[C@H]1OC(C)=O lower than 50 µM or not?
Found: YES

Lookup: hey, is IC50 for CC(=O)O[C@@H]1[C@@H](OC(C)=O)[C@H](O[C@H]2CC[C@@]3(C)C(=CC[C@]4(O)[C@@H]3C[C@@H](OC(=O)/C=C(\C)C(C)C)[C@@]3(C)[C@]4(O)CC[C@@]3(O)C(C)=O)C2)OC[C@H]1OC(C)=O lower than 50 µM or not?
Found: YES

Lookup: hey, is IC50 for CC(=O)OC[C@@H]1O[C@H](O[C@H]2CC[C@@]3(C)C(=CC[C@]4(O)[C@@H]3C[C@@H](OC(=O)/C=C(\C)C(C)C)[C@@]3(C)[C@]4(O)CC[C@@]3(O)C(C)=O)C2)[C@@H](OC(C)=O)[C@H](OC(C)=O)[C@H]1OC(C)=O lower than 50 µM or not?
Found: YES

Lookup: hey, is IC50 for CC(=O)O[C@@H]1[C@@H](O[C@H]2CC[C@@]3(C)C(=CC[C@]4(O)[C@@H]3C[C@@H](OC(=O)/C=C(\C)C(C)C)[C@@]3(C)[C@]4(O)CC[C@@]3(O)C(C)=O)C2)OC[C@H](OC(C)=O)[C@@H]1OC(C)=O lower than 50 µM or not?
Found: YES

Hey, just so you know, these numbers are from ChEMBL document CHEMBL5143557.
